- test_method_notes: Fluorescence titration of FHEt-1lyso against pH in universal buffer (pKa)
- Type: physicochemical
- run_conditions: universal buffer (UB); one-photon fluorescence titration, UB pH 4 to 11; read-out: pKa
- Procedure: A dissociation constant (Kd) for binding the probe to Ca^2+ was measured using a conventionally known method. […] Probes (BCa-3°mem at a concentration of 0.3 μM and BCa-1 and BCa-2mito at concentrations of 0.1 μM) were added to calcium CB and fluorescence intensity was measured. Each Kd was calculated through a resultant titration curve. […] The pKa value was calculated through a titration curve. Meanwhile, the fluorescence titration of FHEt-1lyso was performed in UB at pH 4 to 11. […]
endpoint: pKa
Give bare numbers.

Provide pKa value for the following compound: CCN(CC)c1ccc(NC(=O)CNc2ccc3c(c2)C(C)(CC(=O)NCCN(C)C)c2cc(C(C)=O)ccc2-3)cc1 (stereo not shown)
6.5
